Record: pIC50 reported on PA/PB1 (Influenza A virus (A/Puerto Rico/8/1934(H1N1)), UniProt P03431+P03433).
pIC50: −log10 of the molar value.

COMPOUND: O=[N+]([O-])c1ccc(Oc2ccc(-n3cc(CO)nn3)cc2)c2nonc12
INEQUALITY_SIGN: =
pIC50: 4.46
--
COMPOUND: CCCOc1ccc(C(=O)Nc2nc3nc(C)cc(-c4ccccc4)n3n2)cc1
INEQUALITY_SIGN: <
pIC50: 3.70
--
COMPOUND: CC1=CC(c2ccccc2)n2nc(NC(=O)CCc3ccccc3)nc2N1 (stereo unspecified)
INEQUALITY_SIGN: =
pIC50: 4.00
--
COMPOUND: CC1=CC(c2ccccc2)n2nc(NC(=O)c3ccccc3)nc2N1 (stereo unspecified)
INEQUALITY_SIGN: =
pIC50: 4.00
--
COMPOUND: CC1=CC(c2ccccc2)n2nc(NC(=O)c3ccc(OC(C)C)cc3)nc2N1 (stereo unspecified)
INEQUALITY_SIGN: =
pIC50: 4.12
--
COMPOUND: NC(=O)c1c(NC(=O)c2nc3nc(-c4ccccc4)cc(C(F)(F)F)n3n2)sc2c1CCCC2
INEQUALITY_SIGN: =
pIC50: 5.12
--
COMPOUND: CC1=CC(c2ccccc2)n2nc(NC(=O)c3ccc(Oc4ccccc4)cc3)nc2N1 (stereo unspecified)
INEQUALITY_SIGN: =
pIC50: 3.81
--
COMPOUND: Cc1cc(-c2ccccc2)n2nc(C(=O)Nc3sc4c(c3C(N)=O)CCCCC4)nc2n1
INEQUALITY_SIGN: =
pIC50: 5.96
--
COMPOUND: CC1=CC(c2ccccc2)n2nc(NC(=O)c3cccc(F)c3)nc2N1 (stereo unspecified)
INEQUALITY_SIGN: =
pIC50: 3.81
--
COMPOUND: CC1=CC(c2ccccc2)n2nc(NC(=O)c3ccc4ccccc4c3)nc2N1 (stereo unspecified)
INEQUALITY_SIGN: <
pIC50: 3.70
--
COMPOUND: CCOc1ccc(C(=O)Nc2nc3n(n2)C(c2ccccc2)C=C(C)N3)cc1 (stereo unspecified)
INEQUALITY_SIGN: =
pIC50: 3.86
--
COMPOUND: CCCCOc1ccc(C(=O)Nc2nc3n(n2)C(c2ccccc2)C=C(C)N3)cc1 (stereo unspecified)
INEQUALITY_SIGN: =
pIC50: 4.43
--
COMPOUND: Cc1cc(-c2ccccc2)n2nc(NC(=O)c3ccccc3)nc2n1
INEQUALITY_SIGN: <
pIC50: 3.70
--
COMPOUND: CCCOc1ccc(C(=O)Nc2nc3nc(-c4ccccc4)cc(C)n3n2)cc1
INEQUALITY_SIGN: =
pIC50: 3.80
--
COMPOUND: Cc1cc(-c2ccccc2)nc2nc(C(=O)Nc3sc4c(c3C(N)=O)CCCCC4)nn12
INEQUALITY_SIGN: =
pIC50: 4.55
--
COMPOUND: CC1=CC(c2ccccc2)n2nc(NC(=O)c3ccc([N+](=O)[O-])cc3)nc2N1 (stereo unspecified)
INEQUALITY_SIGN: =
pIC50: 4.12
--
COMPOUND: CCCCc1ccc(C(=O)Nc2nc3n(n2)C(c2ccccc2)C=C(C)N3)cc1 (stereo unspecified)
INEQUALITY_SIGN: =
pIC50: 4.32
--
COMPOUND: CC1=CC(c2ccccc2)n2nc(NC(=O)c3ccc(Cl)cc3)nc2N1 (stereo unspecified)
INEQUALITY_SIGN: =
pIC50: 4.02
--
COMPOUND: CC1=CC(c2ccccc2)n2nc(NC(=O)c3ccc(F)cc3)nc2N1 (stereo unspecified)
INEQUALITY_SIGN: =
pIC50: 3.86
--
COMPOUND: Cc1cc(-c2ccccc2)n2nc(C(=O)Nc3ccccc3)nc2n1
INEQUALITY_SIGN: =
pIC50: 3.80
--
COMPOUND: CC1=CC(c2ccccc2)n2nc(NC(=O)c3ccccc3F)nc2N1 (stereo unspecified)
INEQUALITY_SIGN: =
pIC50: 3.73
